tested on: Saccharomyces cerevisiae; assay: protein stability index of tFT-peptide fusion (C-terminal peptide) (PSI (0-1 scale)); higher = more stable (slower turnover); settings: genetic background: wild type; temperature: 30 C
Some sequences, each annotated with its measured protein stability index.

Example cases with answers are listed next.
| Polymer sequence | protein stability index |
| --- | --- |
| LPPSQLPPPHLT | 0.662 |
| TSGLSSAGSRSL | 0.647 |
| PANLLHPSDPPP | 0.612 |
| VGVGNRRWGGGV | 0.679 |
| RTQGVWYHGVRR | 0.745 |

Give Saccharomyces cerevisiae protein stability index for `LPPLAACAPSAV`
0.615

Under Saccharomyces cerevisiae: protein stability index value of `IADGSEIVRSLI` ?
0.71

State its protein stability index on Saccharomyces cerevisiae: `DQLETTSAPLPG`
0.711

Give recorded protein stability index with Saccharomyces cerevisiae for the following sequence: `VSLLCFCFGCVL`
0.604

Item `GALVGFPAFFLL` with Saccharomyces cerevisiae - protein stability index?
0.654

Form: Entry = `IQLRPFLSSPCR` | System = Saccharomyces cerevisiae | protein stability index = ____
0.609

Param readout= protein stability index; system= Saccharomyces cerevisiae; entry= `APPPSVCPRFPI` ; returns value.
0.796

Which measured protein stability index belongs to `VVAAGGASDVGG` , tested on Saccharomyces cerevisiae?
0.712

Please tell me: protein stability index of `PRSPPSPTLPHP` , system Saccharomyces cerevisiae?
0.609

Notebook: pull reported protein stability index for Saccharomyces cerevisiae, entry `VVDGWVAAWGVW`
0.694

----------
tested on: Saccharomyces cerevisiae; assay: protein stability index of tFT-peptide fusion (C-terminal peptide) (PSI (0-1 scale)); higher = more stable (slower turnover); conditions: genetic background: doa10 deletion; temperature: 30 C
Recorded metric: protein stability index
Enter a number only.

These recorded examples may help you get a feel for the data.
| Polymer sequence | protein stability index |
| --- | --- |
| LFIRSFLFFSHF | 0.248 |
| FVGVLVLCVCRC | 0.116 |

Using the record for `SGRGFSFVLCTV` , report its protein stability index.
0.307

Reported protein stability index for `LLLRWWLYSCCP` : what is it?
0.319

Name the recorded protein stability index for `CSLFYVFYRRLL` .
0.285

Item under review: `LVLSVWFFNCTS` . Reported protein stability index?
0.277

Need protein stability index of `GCDVWCLVLRMG` , thanks.
0.418

----------
test system: Saccharomyces cerevisiae; experiment: protein stability index of tFT-peptide fusion (C-terminal peptide) (PSI (0-1 scale)); higher = more stable (slower turnover); conditions: genetic background: wild type; temperature: 30 C
The entries below come with measured protein stability index values attached.
The answer should be written as a number, with no unit following it.

| Polymer sequence | Recorded metric | Recorded value |
| --- | --- | --- |
| SEGSLIPGSHIA | protein stability index | 0.733 |
| LSIIRSPDWVDC | protein stability index | 0.639 |
| AWSVRVGGSATA | protein stability index | 0.695 |
| GVMTGGPPGGAG | protein stability index | 0.642 |
| SPLTSSSLPPRT | protein stability index | 0.691 |

Need protein stability index of `SRVQYVLDRSVF` , thanks.
0.649

GET /values?readout=protein stability index&item= `SCLFRVFMFHFS`
0.553

Looking for the measured protein stability index of `FRYLAVSPFGGL` , can you help?
0.749

What measured protein stability index goes with `ATLCVVSKLGLC` ?
0.589

Find the recorded protein stability index belonging to `GGWGWRSGTEGE` and report it.
0.665

Consider the sequence shown here: `RLVHSRPPPFAS` What is its recorded protein stability index?
0.794

Which protein stability index is listed for `GHGGHIVRTSSY` ?
0.7

// protein stability index lookup, key: `GRNDYYTRKISV`
0.728

Entry under review: `SPTRFLPVPTPF` . Reported protein stability index?
0.75

Requested field: protein stability index. Item: `GLSSPLPLALPV`
0.649

What value of protein stability index has been reported for the following sequence? `QWRSWSFATLVT`
0.383

----------
test system: Saccharomyces cerevisiae; assay: protein stability index of tFT-peptide fusion (C-terminal peptide) (PSI (0-1 scale)); higher = more stable (slower turnover); conditions: genetic background: wild type; temperature: 37 C
Recorded metric: protein stability index

Name the recorded protein stability index for `VLCMSIFIVFGI` .
0.303

Requested read-out: protein stability index. Entry: `KVGPVLLLCRRS`
0.69

// query protein stability index value for entry `ATSGATILVLIA`
0.342

Bench note: what protein stability index did `PSPRRPPRSRFP` show?
0.701

----------
tested on: Saccharomyces cerevisiae; assay: protein stability index of tFT-peptide fusion (C-terminal peptide) (PSI (0-1 scale)); higher = more stable (slower turnover); settings: genetic background: das1 deletion; temperature: 30 C
Recorded metric: protein stability index
Just the number.

Consider the following illustrative entries.
| Polymer sequence | Recorded value |
| --- | --- |
| STSSLKRQRTDF [REX2 C-terminal 12 aa] | 0.718 |
| TGQVGVPTISQV [NCE102 C-terminal 12 aa] | 0.687 |
| FHSMAHLSLHQY [YOR394C-A C-terminal 12 aa] | 0.72 |
| RHELQALQAEIN [END3 C-terminal 12 aa] | 0.715 |

So what's the measured protein stability index for this one? REITKCKQIFHK [PTR3 C-terminal 12 aa]
0.691

# input sequence: AEKRDALLKEDA [RPL19A C-terminal 12 aa] ; wanted: its protein stability index
0.685

Consider the sequence QTILKNKKKISQ [GYP6 C-terminal 12 aa] and give its measured protein stability index.
0.701

Which measured protein stability index value corresponds to YHLFYMKLQKKI [SPE2 C-terminal 12 aa] ?
0.698

Give the measured protein stability index of MDPMSPLNKDVS [YMR196W C-terminal 12 aa] .
0.692

Which protein stability index value is on record for PDCTVCSNSNSN [UBA3 C-terminal 12 aa] ?
0.705

Quick one: protein stability index for KMKQRKLTPGDS [CMC4 C-terminal 12 aa] ?
0.691

Look up protein stability index: NTTHYNASLLRQ [PHO5 C-terminal 12 aa]
0.688

----------
test system: Saccharomyces cerevisiae; assay: protein stability index of tFT-peptide fusion (C-terminal peptide) (PSI (0-1 scale)); higher = more stable (slower turnover); conditions: genetic background: wild type; temperature: 30 C
The reader will find reported protein stability index values listed item by item below.
Keep the answer to the number alone.

| Polymer sequence | System | Recorded metric | Recorded value |
| --- | --- | --- | --- |
| PPPPPPLPPPLP | Saccharomyces cerevisiae | protein stability index | 0.704 |
| EVGHLILYKIGC | Saccharomyces cerevisiae | protein stability index | 0.648 |
| KKKKKETKNAQQ | Saccharomyces cerevisiae | protein stability index | 0.685 |
| LDTRTLGVLTVG | Saccharomyces cerevisiae | protein stability index | 0.633 |
| YTSHPVLPEVNG | Saccharomyces cerevisiae | protein stability index | 0.695 |

Endpoint output: protein stability index of `LALEVSNLSCSV` . Value?
0.696

So what's the measured protein stability index for this one? `PEGPHTRTVVPA`
0.66

Consider the sequence `SPPPPVPSAGPL` and give its measured protein stability index.
0.7

Entry under review: `CLGLVSNCGLYV` . Reported protein stability index?
0.674

----------
# protein stability index per record follows
tested on: Saccharomyces cerevisiae; test: protein stability index of tFT-peptide fusion (C-terminal peptide) (PSI (0-1 scale)); higher = more stable (slower turnover); details: genetic background: wild type; temperature: 30 C
Simply state the number, no unit and no words.

Please tell me: protein stability index of `ISTRLALCACVC` , system Saccharomyces cerevisiae?
0.327

What protein stability index appears in the records for this sequence with Saccharomyces cerevisiae? `GPTPHQPRMDPR`
0.693

# returns recorded protein stability index (system: Saccharomyces cerevisiae) for `NRPKVNSQERGY`
0.666

For the record `DVGISICLLHGA` , what value of protein stability index is listed for Saccharomyces cerevisiae?
0.666

Param readout = protein stability index; param system = Saccharomyces cerevisiae; param query = `QCLTVPRSAHLP` ; response: value
0.607

Lab note: need protein stability index with Saccharomyces cerevisiae for entry `RKAEWIKQYDMH` , please look it up.
0.479

Under Saccharomyces cerevisiae: protein stability index value of `SFRFCSNRFTRL` ?
0.699

Item `LCVLFVSKPTPE` with Saccharomyces cerevisiae - protein stability index?
0.67

Request - read-out protein stability index | tested on Saccharomyces cerevisiae | sequence `DMDLAVTRHIRS`
0.718

Recall the recorded protein stability index for `GRGVRLRVRLLL` with Saccharomyces cerevisiae and state it.
0.292

Write down the reported protein stability index of `EMGGLKACRGGG` , test system: Saccharomyces cerevisiae.
0.553

Lab note: need protein stability index with Saccharomyces cerevisiae for entry `GNPRRNLSTSSR` , please look it up.
0.712

# get_value(readout= protein stability index, system= Saccharomyces cerevisiae) for `LSYGQKARIKRE`
0.703

Notebook entry, Saccharomyces cerevisiae assay: protein stability index of `PVALYFIREFSP` = ?
0.699

I'm curious: which protein stability index was measured for `LGWFVDFVFVVW` tested on Saccharomyces cerevisiae?
0.469

For Saccharomyces cerevisiae, provide protein stability index of `VLSLYWLIISRL` please.
0.467

Recall the recorded protein stability index for `LFHHLAPRPAPP` with Saccharomyces cerevisiae and state it.
0.698
